Every entry's value here was drawn from ChEMBL document CHEMBL4513216.

Assay: Toxicity liver stage against HepG2, at 10uM
Type: cell-based
Design: test concentration 10 uM, cell line HepG2-A16-CD81EGFP
Details: human, HepG2-A16-CD81EGFP cells; read-out: INHIBITION
Field: cytotoxicity at 10 µM. Provide a value for each of the compounds that follow.
Numbers only, in %.

Compound | Unit Name | cytotoxicity at 10 µM
CC(C)C(NC(=O)c1ccc(=O)[nH]c1)c1nnc2n1CCNCC2 (stereo unspecified) | % | -1.86
CC(C)N(C)Cc1cncc2c1CCN(C(=O)c1cccc(C#N)c1)C2 | % | 4.01
COCCN(Cc1cnn(C)c1)c1nc2c(s1)c(C)nn2C | % | -42.4
CN(CCc1ccncc1)C(=O)C1CSCN1C(=O)C1CCCC1 (stereo unspecified) | % | -7.39

Value sought for every listed compound: cytotoxicity at 10 µM.
1. O=C(Cc1ccncc1)N1C[C@H]2CC[C@@H](C1)N(Cc1ccccc1)C2=O
2. CN1CCCc2cc(CNC(=O)c3ccc(NC4CC4)nc3)ccc21
3. CCCc1nc(C)c(C(=O)NCCNc2ncccn2)s1
4. Cc1cc(C(=O)NCC(=O)N2CCOCC2)nn1C(C)(C)C
5. CCN1CCC2(COCc3cnc(-c4cccnc4)nc32)C1 (stereo unspecified)

[5.79, -3.03, -7.22, -3.44, 4.04]

Respectfully, I request cytotoxicity at 10 µM for each entry included below.
1. COC(=O)c1cccc(S(=O)(=O)NCC(c2ccco2)N2CCCC2)c1 (stereo unspecified)
2. O=C(c1cc2c([nH]c1=O)CCC2)N1CCCCCC1c1ccncc1 (stereo unspecified)

[-1.74, -9.31]
